# system.tested: full-length human GLP-1R with an N-terminal FLAG tag (human, UniProt P43220 24-463)
# protocol.notes: cell-based or functional assay
Starred links: 1 amine or outer side, 2 acyl side, 3 side chain; linkers in the order of their positions; H or OH if unused. Non-standard residues stand in square brackets, D forms with d. Groups on a side chain read outwards from the residue. No end group written: not given here. *: point of attachment. C18 diacid = O=C(O)CCCCCCCCCCCCCCCCC(=O)*; C17 diacid = O=C(O)CCCCCCCCCCCCCCCC(=O)*; γGlu = O=C(O)[C@H](CCC(=O)[*:2])N[*:1]; NMeY = CN[C@@H](Cc1ccc(O)cc1)C(=O)O; AEEA = NCCOCCOCC(=O)O; Aib = CC(C)(N)C(=O)O
value.kind: Human GLP1R cAMP EC50, HEK293T
Give me the value, and tack the unit on after it.

binder	Human GLP1R cAMP EC50, HEK293T
[NMeY][Aib]EGTFISDYSI[Aib]K([AEEA-AEEA-γGlu-γGlu-C18 diacid])DR[Aib]AQ[Aib]NFVNWLLAQRPSSGAPPPS-NH2 [Compound No. 28]	20.9 nM
YXEGTFISDYSIXLDSXAQXDFVNWLLAQKG (N-methyl Tyr 1; Aib at 2,13,20; Lys(G5-C18 diacid) at 17; C-terminal OH) [Compound No. 77]	17 nM
YXEGTFISDYSIXXDRXAQADFVEWLLAQRG (N-terminus H; Aib at 2,13,17; Lys(G5-C18 diacid) at 14; C-terminal OH) [Compound No. 146]	7.08 nM
YXEGTFISDYSIXXDRXAQXDFVEWLLAQRG (N-methyl Tyr 1; Aib at 2,13,17,20; Lys(G5-C18 diacid) at 14; C-terminal OH) [Compound No. 108]	41.7 nM
[NMeY][Aib]EGTFISDYSI[Aib]LDR[Aib]AQ[Aib]NFVNWLLAQK([AEEA-AEEA-γGlu-γGlu-C17 diacid])GGGGS-NH2 [Compound No. 33]	437 nM
YXEGTFISDYSIXXDRXAQXDFVNWLLAQRPSSGAPPPS (N-methyl Tyr 1; Aib at 2,13,17,20; Lys(G5-C18 diacid) at 14; C-terminal OH) [Compound No. 54]	120 nM
[NMeY][Aib]EGTFISDYSI[Aib]LDR[Aib]AA[Aib]K([AEEA-AEEA-γGlu-γGlu-C18 diacid])FVNWLLAQSPSSGAPPPS-NH2 [Compound No. 107]	45.7 nM
[NMeY][Aib]EGTFISDYSIALDR[Aib]AQ[Aib]K([GGPAPAP-C18 diacid])FVNWLLAQSPSSGAPPPS-OH [Compound No. 103]	29.5 nM

Prompt: Returns the measured Human GLP1R cAMP EC50, HEK293T for the input binder. Input: [NMeY][Aib]EGTFISDYSIALDR[Aib]AQ[Aib]K([AEEA-AEEA-γGlu-γGlu-C17 diacid])FVNWLLAQRG-OH [Compound No. 36]
Response: 87.1 nM

Prompt: Returns the measured Human GLP1R cAMP EC50, HEK293T for the input binder. Input: [NMeY][Aib]EGTFISDYSI[Aib]LDR[Aib]K([AEEA-AEEA-γGlu-γGlu-C18 diacid])A[Aib]NFVNWLLAQSPSSGAPPPS-NH2 [Compound No. 109]
Response: 204 nM
